B1: CLCN6 (parent)
chain: FQSISLRKIQFNFPYFRSDRDKRD

# Variants of: B1
# EXPERIMENTAL PROTOCOL: protein stability index of a GFP-peptide fusion (GPS, HEK-293T) (PSI 1-6); higher = more stable;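 also: lentivirally expressed fusions sorted by FACS into six bins by GFP to DsRed ratio, PSI derived from sequencing read proportions per bin multiplied by bin number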
# RECORDED CONDITIONS: c terminus: a fixed tail appended
OBSERVED PROPERTY: protein stability index
Enter the number alone.

Worked examples, 5 variants total:
Y15S | 2.58
R23T | 2.25
Y15E | 2.7
R20E | 2.73
N12M | 1.54

Record Y15H , field protein stability index: 2.78
